Value source: patent EP4154889A1

Assay: clinical
Details: human, in vivo, adult patients, one hour after a single dose of 50 mg; read-out: serum concentration
Reported endpoint: concentration at 1 h (nM)
Respond numerically; units are nM and should not be typed.

Task: What does the data say about its concentration at 1 h? Entry: CCCc1nn(C)c2c(=O)[nH]c(-c3cc(S(=O)(=O)N4CCN(C)CC4)ccc3OCC)nc12 [Sildenafil]
Output: 330

====

Experiment: clinical
Details: human, in vivo, adult patients, one hour after a single dose of 25 mg; read-out: serum concentration
Reported endpoint: concentration at 1 h (nM)
Respond numerically; units are nM and should not be typed.

Task: What does the data say about its concentration at 1 h? Entry: `CCCc1nn(C)c2c(=O)[nH]c(-c3cc(S(=O)(=O)N4CCN(C)CC4)ccc3OCC)nc12`
Output: 170
